- targetOrTestSystem: EGFR (ErbB1) (Homo sapiens, UniProt P00533)
- Sequence (P00533 25-1210): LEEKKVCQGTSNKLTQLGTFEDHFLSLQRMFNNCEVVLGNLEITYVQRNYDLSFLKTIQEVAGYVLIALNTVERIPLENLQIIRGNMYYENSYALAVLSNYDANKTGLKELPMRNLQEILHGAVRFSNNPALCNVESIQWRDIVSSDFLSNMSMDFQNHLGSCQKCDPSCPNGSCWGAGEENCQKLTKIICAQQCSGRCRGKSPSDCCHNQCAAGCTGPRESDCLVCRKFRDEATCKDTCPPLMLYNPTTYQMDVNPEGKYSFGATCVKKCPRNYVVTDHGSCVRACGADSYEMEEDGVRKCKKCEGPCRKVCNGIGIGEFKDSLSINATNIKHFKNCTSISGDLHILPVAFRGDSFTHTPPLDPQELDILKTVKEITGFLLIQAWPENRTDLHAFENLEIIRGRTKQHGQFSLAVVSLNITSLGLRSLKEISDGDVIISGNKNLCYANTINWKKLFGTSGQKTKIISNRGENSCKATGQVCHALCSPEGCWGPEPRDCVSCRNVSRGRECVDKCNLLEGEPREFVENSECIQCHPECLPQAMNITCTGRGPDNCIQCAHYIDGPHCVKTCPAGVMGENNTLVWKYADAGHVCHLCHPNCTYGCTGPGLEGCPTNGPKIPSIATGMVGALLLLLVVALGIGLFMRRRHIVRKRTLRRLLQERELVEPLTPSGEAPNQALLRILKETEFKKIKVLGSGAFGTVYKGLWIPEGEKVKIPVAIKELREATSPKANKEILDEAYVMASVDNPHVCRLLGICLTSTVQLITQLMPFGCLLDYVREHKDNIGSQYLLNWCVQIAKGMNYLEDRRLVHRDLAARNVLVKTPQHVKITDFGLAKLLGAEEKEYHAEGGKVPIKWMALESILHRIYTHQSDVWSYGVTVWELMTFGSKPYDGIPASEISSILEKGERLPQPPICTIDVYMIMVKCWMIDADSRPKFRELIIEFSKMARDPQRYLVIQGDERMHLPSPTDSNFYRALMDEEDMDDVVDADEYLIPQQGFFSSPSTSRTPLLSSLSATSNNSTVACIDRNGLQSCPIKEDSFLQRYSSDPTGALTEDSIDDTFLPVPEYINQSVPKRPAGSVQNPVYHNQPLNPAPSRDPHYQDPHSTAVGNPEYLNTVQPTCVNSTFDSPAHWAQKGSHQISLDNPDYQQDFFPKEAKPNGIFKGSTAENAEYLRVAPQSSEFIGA
pIC50: −log10 of the molar value.
measuredEndpoint: pIC50

Given the entry C=CC(=O)Nc1cc(Nc2ncc3cccc(-c4ccccc4)c3n2)ccc1N(C)CCN(C)C , report its measured pIC50.
< 7.00

----------
- targetOrTestSystem: EGFR (ErbB1) (Homo sapiens, UniProt P00533)
- Construct: purchased Invitrogen
- testSummary: Z'-LYTE kinase inhibition assay (Invitrogen), EGFR
- Assay type: biochemical
- assayConditions: compound at 100 nM; [ATP] = Km
measuredEndpoint: inhibition at 0.1 µM

Solved entries (count: 5):
C=CC(=O)Nc1cc(Nc2ncc3cccc(-c4cccc(Cl)c4)c3n2)c(OC)cc1N(C)CCN(C)C
> 50%
C=CC(=O)Nc1cc(Nc2ncc3cccc(-c4ccccc4Cl)c3n2)ccc1OCCN(C)C
< 50%
C=CC(=O)N1CCCC(n2cnc3cnc(Nc4ccc(N5CCN(C)CC5)cc4F)nc32)C1 (stereo not drawn)
< 50%
C=CC(=O)Nc1cccc(-n2cnc3cnc(Nc4ccc(N5CCN(C)CC5)c(F)c4F)nc32)c1
< 50%
C=CC(=O)N1CCC(n2cnc3cnc(Nc4ccc(N5CCN(CCO)CC5)c(F)c4F)nc32)C1 (stereo not drawn)
< 50%

Given the entry C=CC(=O)Nc1cc(Nc2ncc3cccc(-c4cccnc4)c3n2)ccc1N(C)CCN(C)C , report its measured inhibition at 0.1 µM.
< 50%

Given the entry C=CC(=O)Nc1cc(Nc2ncc3cccc(-c4cccc(F)c4)c3n2)c(OC)cc1N(C)CCN(C)C , report its measured inhibition at 0.1 µM.
> 50%

Given the entry C=CC(=O)Nc1cc(Nc2ncc3cccc(-c4ccccc4)c3n2)ccc1N(C)CCN(C)C , report its measured inhibition at 0.1 µM.
> 50%

Given the entry C=CC(=O)N1CCCC(n2cnc3cnc(Nc4ccc(N5CCN(CCO)CC5)c(F)c4F)nc32)C1 (stereo not drawn) , report its measured inhibition at 0.1 µM.
< 50%
